- Tested on: MCF-10A
- Protocol text: normalised response (% of control), CellTiter-Glo; higher = more viable cells (100 = DMSO, 0 = benzethonium chloride kill control)
- Condition set: incubation time: 72 h
I'd be grateful if you could share measured normalised response for these entries.
# answer = value followed by unit

Guide cases for normalised response, answers given:
| Molecule | normalised response |
| --- | --- |
| CC(C)n1nc(-c2ccc3oc(N)nc3c2)c2c(N)ncnc21 [INK128] (1 nM) | 96.2% |
| C[C@@H](C(=O)O)c1ccc(-c2ccccc2)c(F)c1 [Tarenflurbil] (1 nM) | 85.5% |
| CC[C@H](CC#N)OC(=O)N[C@@H](C)c1cccc(NC(=O)Nc2ccc(-c3cnco3)c(OC)c2)c1 [AVN944] (1000 nM) | 58% |
| Cc1c(C(=O)Nc2ccc(N3C[C@@H](C)O[C@@H](C)C3)nc2)cccc1-c1ccc(OC(F)(F)F)cc1 [Erismodegib] (1 nM) | 84.4% |
| CC/C(=C(\c1ccccc1)c1ccc(OCCN(C)C)cc1)c1ccccc1 [Tamoxifen] (1 nM) | 111% |

Please supply normalised response for each of the following items, keeping them in order.
1. NC(=O)c1cccc2cn(-c3ccc([C@@H]4CCCNC4)cc3)nc12 [MK-4827] (1000 nM)
2. NC(=O)NO [Hydroxyurea] (10 nM)
3. COc1cc(Nc2ncc(F)c(Nc3ccc4c(n3)N(COP(=O)(O)O)C(=O)C(C)(C)O4)n2)cc(OC)c1OC [Fostamatinib] (0.25 nM)

1: 106%; 2: 110%; 3: 103%

* * *

- Tested on: DU-4475
- Protocol text: normalised response (% of control), CellTiter-Glo; higher = more viable cells (100 = DMSO, 0 = benzethonium chloride kill control)
- Condition set: incubation time: 72 h
I'd be grateful if you could share measured normalised response for these entries.
Answers are plain numbers, in %.

| Molecule | Quantity unit | normalised response |
| --- | --- | --- |
| CCc1c(C(=O)C(N)=O)c2c(OCC(=O)O)cccc2n1Cc1ccccc1 [Varespladib] (100 nM) | % | 98.8 |
| CO[C@H]1C[C@@H]2CC[C@@H](C)[C@@](O)(O2)C(=O)C(=O)N2CCCC[C@H]2C(=O)O[C@H]([C@H](C)C[C@@H]2CC[C@@H](O)[C@H](OC)C2)CC(=O)[C@H](C)/C=C(\C)[C@@H](O)[C@@H](OC)C(=O)[C@H](C)C[C@H](C)/C=C/C=C/C=C/1C [Sirolimus] (1 nM) | % | 98.7 |

Please look up its normalised response: NC1(c2ccc(-c3nc4ccn5c(=O)[nH]nc5c4cc3-c3ccccc3)cc2)CCC1 [MK-2206] (10 nM)
102

* * *

- System: MDA-MB-231
- Protocol text: normalised response (% of control), CellTiter-Glo; higher = more viable cells (100 = DMSO, 0 = benzethonium chloride kill control)
- Condition set: incubation time: 72 h
Assign fulfilled whenever normalised response does not fall below 90%; assign not fulfilled whenever it does.

| Compound | Qualitative label |
| --- | --- |
| CC(C)NC[C@@H](C(=O)N1CCN(c2ncnc3c2[C@H](C)C[C@H]3O)CC1)c1ccc(Cl)cc1 [GDC-0068] (100 nM) | fulfilled |
| N[C@@H](Cc1ccc(N(CCCl)CCCl)cc1)C(=O)O [Melphalan] (125 nM) | not fulfilled |
| O=C(c1cc(Cc2n[nH]c(=O)c3ccccc23)ccc1F)N1CCN(C(=O)C2CC2)CC1 [Olaparib] (100 nM) | fulfilled |
| Cc1cc2c(F)c(Oc3ncnn4cc(OC[C@@H](C)O)c(C)c34)ccc2[nH]1 [Brivanib] (10 nM) | fulfilled |

Is reported normalised response greater than or equal to 90% here: CN1CCN(c2nc(C3=C(c4c[nH]c5ccccc45)C(=O)NC3=O)c3ccccc3n2)CC1 [Sotrastaurin] (100 nM)
fulfilled
